These measurements were taken from patent US8975264B2.

Target: human CB1 (cannabinoid receptor 1) (Homo sapiens, UniProt P21554)
Sequence (P21554 whole entry): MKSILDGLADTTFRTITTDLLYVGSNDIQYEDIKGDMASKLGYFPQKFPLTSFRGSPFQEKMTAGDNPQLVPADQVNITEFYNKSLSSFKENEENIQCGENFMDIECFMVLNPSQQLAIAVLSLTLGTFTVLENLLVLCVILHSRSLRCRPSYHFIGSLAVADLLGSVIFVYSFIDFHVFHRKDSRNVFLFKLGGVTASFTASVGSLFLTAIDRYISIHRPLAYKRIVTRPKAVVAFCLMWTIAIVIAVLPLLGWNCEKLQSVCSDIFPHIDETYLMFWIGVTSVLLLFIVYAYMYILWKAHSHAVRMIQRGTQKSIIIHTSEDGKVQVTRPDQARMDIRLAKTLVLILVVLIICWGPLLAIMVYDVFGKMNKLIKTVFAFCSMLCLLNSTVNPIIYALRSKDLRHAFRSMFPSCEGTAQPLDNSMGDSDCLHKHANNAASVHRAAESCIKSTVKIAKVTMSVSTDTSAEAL
Test: CB1 receptor inhibition effect: calcium ion influx assay (Fluo-4 NW) in Chem-1 cells after 1 μM R-(+)-WIN55212-2
Conditions: calcium ion influx in Chem-1 cells expressing human CB1, 1 μM R-(+)-WIN55212-2
Experimental: When cells in which the cannabinoid receptor 1 (CB1) is stably expressed are treated with a CB1 receptor agonist, the CB1 receptor is activated and influx of calcium ions into the cells increases. CB1 receptor inhibition effect of a test compound can be evaluated by measuring the degree of calcium influx inhibition after treating with the test compound. […] ΔRFU: maximum relative fluorescence units−minimum relative fluorescence units […]
property: pIC50
Numbers only, as −log10 of the molar value.

Solved cases (3 shown):
COc1cccc(-c2cc(N3CCC[C@H]3CO)nc3c(-c4ccc(F)cc4F)c(C)nn23)c1 [Example 190] = 6.74
CCc1nn2c(-c3ccc(F)cc3)cc(N3CCC[C@H]3CO)nc2c1-c1ccc(C)cc1 [Example 198] = 7.30
COc1cccc(-c2cc(N3CCC[C@H]3CO)nc3c(-c4ccc(C)cc4)c(C)nn23)c1 [Example 25] = 7.41

State the recorded pIC50 for every item in the following list.
1. CCOCc1nn2c(-c3cccc(F)c3)cc(N3CCC[C@H]3CO)nc2c1-c1ccc2c(c1)OCO2 [Example 214]
2. COCc1nn2c(-c3cccc(F)c3)cc(N(C)CCO)nc2c1-c1ccc(Cl)cc1 [Example 261]
3. Cc1ccc(-c2c(C)nn3c(-c4ccc(F)c(Cl)c4)cc(N4CCC[C@H]4CO)nc23)cc1F [Example 185]
4. COc1cccc(-c2cc(N3CCC[C@H]3CO)nc3c(-c4ccc(C(F)F)cc4)c(C)nn23)c1 [Example 178]
5. CCOCc1nn2c(-c3cccc(C(F)(F)F)c3)cc(N3CCC[C@H]3CO)nc2c1-c1ccc(OC)cc1 [Example 212]
6. OC[C@@H]1CCCN1c1cc(-c2ccc(F)cc2)n2nc(C3CC3)c(-c3ccc(Cl)cc3)c2n1 [Example 196]
7. Cc1cccc(-c2cc(N3CCC[C@H]3CO)nc3c(-c4ccc(OC(F)(F)F)cc4)c(C)nn23)c1 [Example 168]

(A)
1. 7.10
2. 8.05
3. 6.68
4. 6.92
5. 7.59
6. 6.85
7. 6.35

State the recorded pIC50 for every item in the following list.
1. CCOc1ccc(-c2c(C)nn3c(-c4ccc(C)cc4)cc(N4CCC[C@H]4CO)nc23)cc1 [Example 53]
2. CCOCc1nn2c(-c3cccc(F)c3)cc(N(C)CCO)nc2c1-c1ccc(Cl)cc1 [Example 243]
3. Cc1nn2c(-c3cccc(Cl)c3)cc(N3CCC[C@H]3CO)nc2c1-c1ccc2c(c1)OCO2 [Example 172]

(A)
1: 6.41; 2: 8.15; 3: 6.72

State the recorded pIC50 for every item in the following list.
1. COCc1nn2c(-c3ccc(F)cc3)cc(N(C)CCO)nc2c1-c1ccc(Cl)cc1 [Example 260]
2. Cc1nn2c(-c3cccc(F)c3)cc(N3CCC[C@H]3CO)nc2c1-c1ccc(C(F)(F)F)cc1 [Example 115]
3. Cc1nn2c(-c3ccc(F)cc3)cc(N3CCC[C@H]3CO)nc2c1-c1ccc(C(F)(F)F)cc1 [Example 69]
4. Cc1nn2c(-c3ccc(F)cc3)cc(N3CCC[C@H]3CO)nc2c1-c1ccc(OC(F)(F)F)cc1 [Example 84]

(A)
1: 8.15; 2: 6.85; 3: 6.66; 4: 6.28

----------
Molecular target: human CB1 (cannabinoid receptor 1) (Homo sapiens, UniProt P21554)
Experiment: CB1 receptor inhibition effect: calcium ion influx assay (Fluo-4 NW) in Chem-1 cells after 1 μM R-(+)-WIN55212-2
Type: cell-based
Details: calcium ion influx in Chem-1 cells expressing human CB1, 1 μM R-(+)-WIN55212-2
Procedure: When cells in which the cannabinoid receptor 1 (CB1) is stably expressed are treated with a CB1 receptor agonist, the CB1 receptor is activated and influx of calcium ions into the cells increases. CB1 receptor inhibition effect of a test compound can be evaluated by measuring the degree of calcium influx inhibition after treating with the test compound. […] ΔRFU: maximum relative fluorescence units−minimum relative fluorescence units […]
property: pIC50
Give bare numbers, as −log10 of the molar value.

Solved cases (5 shown):
CCOCc1nn2c(-c3cccc(OC)c3)cc(N3CCC[C@H]3CO)nc2c1-c1ccc(C)cc1 [Example 203] = 7.52
Cc1ccc(-c2c(C)nn3c(-c4ccc(F)c(Cl)c4)cc(N4CCC[C@H]4CO)nc23)cc1 [Example 36] = 7.00
COCc1nn2c(-c3cccc(F)c3)cc(N3CCC[C@H]3CO)nc2c1-c1ccc(Cl)cc1 [Example 232] = 8.40
CCCCc1nn2c(-c3cccc(C(F)(F)F)c3)cc(N3CCC[C@H]3CO)nc2c1-c1ccc(C)cc1 [Example 288] = 8.10
CCOc1ccc(-c2c(C)nn3c(-c4cccc(Cl)c4)cc(N4CCC[C@H]4CO)nc23)cc1 [Example 171] = 6.62

State the recorded pIC50 for every item in the following list.
1. CCCc1ccc(-c2c(C)nn3c(-c4ccc(F)cc4)cc(N4CCC[C@H]4CO)nc23)cc1 [Example 72]
2. CCCOc1ccc(-c2c(C)nn3c(-c4ccc(C)cc4)cc(N4CCC[C@H]4CO)nc23)cc1 [Example 194]
3. CCOCc1nn2c(-c3cccc(C)c3)cc(N3CCC[C@H]3CO)nc2c1-c1ccc(OC)cc1 [Example 220]
4. Cc1nn2c(-c3cccc(C(F)(F)F)c3)cc(N3CCC[C@H]3CO)nc2c1-c1ccc2c(c1)OCO2 [Example 125]

(A)
1. 6.46
2. 6.70
3. 7.52
4. 7.05

State the recorded pIC50 for every item in the following list.
1. Cc1nn2c(-c3cccc(Cl)c3)cc(N3CCC[C@H]3CO)nc2c1-c1ccc(Cl)cc1 [Example 2]
2. COc1ccc(-c2c(C)nn3c(-c4cccc(C(F)(F)F)c4)cc(N4CCC[C@H]4CO)nc23)cc1F [Example 138]
3. CCOCc1nn2c(-c3cccc(OC)c3)cc(N(C)CCO)nc2c1-c1ccc2c(c1)OCO2 [Example 252]
4. Cc1nn2c(-c3cccc(C(F)(F)F)c3)cc(N3CCC[C@H]3CO)nc2c1-c1ccc(Cl)cc1 [Example 9]
5. COCc1nn2c(-c3cccc(C)c3)cc(N3CCC[C@H]3CO)nc2c1-c1ccc(Cl)cc1 [Example 234]

(A)
7.00
6.68
7.00
6.92
7.82

----------
molecular target: UniProt:P21554; assay: CB1 receptor inhibition effect: calcium ion influx assay (Fluo-4 NW) in Chem-1 cells after 1 μM R-(+)-WIN55212-2; settings: calcium ion influx in Chem-1 cells expressing human CB1, 1 μM R-(+)-WIN55212-2
property: pIC50
Give bare numbers, as −log10 of the molar value.

Solved cases (3 shown):
COCc1nn2c(-c3cccc(C(F)(F)F)c3)cc(N3CCC[C@H]3CO)nc2c1-c1ccc2c(c1)OCO2 = 7.62
CCOCc1nn2c(-c3ccc(F)cc3)cc(N(C)CCO)nc2c1-c1ccc(OC)cc1 = 6.36
Cc1nn2c(-c3ccc(F)c(Cl)c3)cc(N3CCC[C@H]3CO)nc2c1-c1ccc(F)cc1 = 6.82

State the recorded pIC50 for every item in the following list.
1. Cc1nn2c(-c3ccccc3)cc(N3CCC[C@H]3CO)nc2c1-c1ccc2c(c1)OCO2
2. Cc1cccc(-c2cc(N3CCC[C@H]3CO)nc3c(-c4ccc(C(F)(F)F)cc4)c(C)nn23)c1
3. Cc1ccccc1-c1cc(N2CCC[C@H]2CO)nc2c(-c3ccc(Cl)cc3)c(C)nn12
4. Cc1nn2c(-c3ccccc3F)cc(N3CCC[C@H]3CO)nc2c1-c1ccc(Cl)cc1
5. Cc1nn2c(-c3ccc(F)cc3)cc(N3CCC[C@H]3CO)nc2c1-c1ccccc1F
6. Cc1ccc(-c2c(C)nn3c(-c4ccc(F)c(F)c4)cc(N4CCC[C@H]4CO)nc23)cc1
7. CCc1nn2c(-c3cccc(F)c3)cc(N3CCC[C@H]3CO)nc2c1-c1ccc(C)cc1
8. COCc1nn2c(-c3cccc(C(F)(F)F)c3)cc(N(C)CCO)nc2c1-c1ccc(OC)cc1

(A)
[7.05, 6.59, 6.52, 6.44, 6.37, 7.28, 6.96, 7.85]

State the recorded pIC50 for every item in the following list.
1. CCOc1ccc(-c2c(C)nn3c(-c4cccc(F)c4)cc(N4CCC[C@H]4CO)nc23)cc1
2. Cc1ccc(-c2cnn3c(-c4ccc(F)cc4)cc(N4CCC[C@H]4CO)nc23)cc1

(A)
1: 6.89; 2: 6.35

Please fill in: pIC50 reported for "Cc1ccc(-c2c(C)nn3c(-c4cccc(C(F)(F)F)c4)cc(N4CCC[C@H]4CO)nc23)cc1F" = 7.05
